Test Summary: Cytotoxicity against human LS180 cells assessed as cell growth inhibition after 48 hrs by MTT assay
Assay type: functional, cell-based
Measurement Parameters: LS180, 48 h
Measured Parameter: IC50 (µM)
// return numeric value only (unit: µM, not printed)

C[C@H]1[C@@H](OCCOc2ccc(/C=C/C(=O)c3ccc(O)cc3)cc2)O[C@@H]2O[C@@]3(C)CC[C@H]4[C@H](C)CC[C@@H]1[C@@]24OO3 24

q: Any idea what its IC50 is? The compound is `COc1cccc2c1C(=O)c1c(O)c3c(c(O)c1C2=O)C[C@@](O)(C(=O)CO)C[C@@H]3O[C@H]1C[C@H](N)[C@H](O)[C@H](C)O1`
a: 0.84

q: Let us now turn to `C[C@H]1[C@@H](O)O[C@@H]2O[C@@]3(C)CC[C@H]4[C@H](C)CC[C@@H]1[C@@]24OO3`
a: 32

q: Let us now turn to `COc1cc(/C=C/C(=O)c2ccc(OCCO[C@H]3O[C@@H]4O[C@@]5(C)CC[C@H]6[C@H](C)CC[C@@H]([C@H]3C)[C@@]46OO5)cc2)cc(OC)c1OCCO[C@H]1O[C@@H]2O[C@@]3(C)CC[C@H]4[C@H](C)CC[C@@H]([C@H]1C)[C@@]24OO3`
a: 16
